# Tested on: Pseudomonas aeruginosa FADDI-PA01
# Type: cell-based
# Condition parameters: FADDI-
Where a SMILES comes first, the peptide text is derived from it. Bridges are numbered along the chain shown (N, C = ends). [ ]: non-standard residue; d: D form. The star is where a group is joined. Benzofuran(2-CO) = O=C(c1cc2ccccc2o1)*; X23 = O=C(c1cc2ccccc2[nH]1)*; X36 = O=C(c1ncc(Br)cc1Br)*; Dab = NCC[C@H](N)C(=O)O; Abu = CC[C@H](N)C(=O)O; Dap = NC[C@H](N)C(=O)O
The following compounds are shown together with reported Minimum inhibitory concentration values.
Give the number; µg/mL is assumed, so skip it.

{"Compound": "CC[C@@H]1NC(=O)[C@@H](CC(C)C)NC(=O)[C@H](CCN)NC(=O)[C@@H](NC(=O)[C@H](CN)NC(=O)[C@@H](NC(=O)[C@H](CCN)NC(=O)c2cc3ccccc3o2)[C@@H](C)O)CCNC(=O)[C@H]([C@@H](C)O)NC(=O)[C@H](CCN)NC(=O)[C@H](CCN)NC1=O [Compound 92] ({Benzofuran(2-CO)}-[Dab]T[Dap][Dab][Dab][dL][Abu][Dab][Dab]T; lactam 4-C)", "Measurement unit": "µg/mL", "Minimum inhibitory concentration": 0.5}
{"Compound": "CC(C)C[C@H]1NC(=O)[C@H](CCN)NC(=O)[C@@H](NC(=O)[C@H](CN)NC(=O)[C@@H](NC(=O)[C@H](CCN)NC(=O)c2cc3ccccc3[nH]2)[C@@H](C)O)CCNC(=O)[C@H]([C@@H](C)O)NC(=O)[C@H](CCN)NC(=O)[C@H](CCN)NC(=O)[C@H]([C@@H](C)O)NC1=O [Compound 66] (X23-[Dab]T[Dap][Dab][Dab][dL]T[Dab][Dab]T; lactam 4-C)", "Measurement unit": "µg/mL", "Minimum inhibitory concentration": 2}

Then this compound:
Pseudomonas aeruginosa FADDI-PA01 Minimum inhibitory concentration of CC(C)C[C@H]1NC(=O)[C@H](CCN)NC(=O)[C@@H](NC(=O)[C@H](CN)NC(=O)[C@@H](NC(=O)[C@H](CCN)NC(=O)c2ncc(Br)cc2Br)[C@@H](C)O)CCNC(=O)[C@H]([C@@H](C)O)NC(=O)[C@H](CCN)NC(=O)[C@H](CCN)NC(=O)[C@H]([C@@H](C)O)NC1=O [Compound 29] (X36-[Dab]T[Dap][Dab][Dab][dL]T[Dab][Dab]T; lactam 4-C) is 0.5
